Please respond with reported Multi-Tox Assay Max Activity (%) for every item in the list.
target: APOL1 G1 (Homo sapiens, UniProt O14791, I384M/S342G); assay: MultiTox-Fluor Multiplex Cytotoxicity Assay, tet-inducible APOL1 G1 T-REx-HEK293 cells; assay type: cell-based; set-up: expressed in transfected cells; host or cells: T-REx HEK293, clone G1 DC3.25 (pAAVS1-Puro-APOL1 G1); conditions: Multi-Tox Assay; APOL1 variant not given
Sequence (O14791 28-398 S342G/I384M): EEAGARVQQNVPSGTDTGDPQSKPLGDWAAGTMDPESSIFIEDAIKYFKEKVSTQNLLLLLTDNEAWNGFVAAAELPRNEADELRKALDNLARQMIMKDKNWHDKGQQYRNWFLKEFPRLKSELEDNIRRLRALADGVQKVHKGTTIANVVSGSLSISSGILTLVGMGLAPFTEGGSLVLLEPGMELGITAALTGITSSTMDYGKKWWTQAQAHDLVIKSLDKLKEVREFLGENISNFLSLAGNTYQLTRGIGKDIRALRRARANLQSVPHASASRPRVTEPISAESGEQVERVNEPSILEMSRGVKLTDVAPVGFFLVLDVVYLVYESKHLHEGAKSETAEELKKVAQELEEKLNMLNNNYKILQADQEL
Give bare numbers, in %.

# count of solved cases: 4
C[C@H]1C[C@@]2(C[C@@H](c3cn(CC#N)nn3)N1)OC[C@@H](O)c1cc(Cl)sc12 [Compound 255]    100.0
C[C@H]1C[C@@]2(C[C@@H](c3cn(Cc4ccc(O)cc4)nn3)N1)OC[C@@H](O)c1cc(Cl)sc12 [Compound 259]    100.0
Cc1noc(C)c1Cn1cc([C@@H]2C[C@]3(C[C@H](C)N2)OCC(F)(F)c2cc(Cl)sc23)nn1 [Compound 353]    100.0
CCc1c[nH]c([C@@H]2C[C@]3(C[C@H](C)N2)OCCc2cc(Cl)sc23)n1 (racemic) [Compound 153]    96.0

Consider the following items and state reported Multi-Tox Assay Max Activity (%) for each.
1. CC(C)N1CC(Cn2cc([C@@H]3C[C@]4(C[C@H](C)N3)OC[C@@H](O)c3cc(Cl)sc34)nn2)CC1=O (some centres unmarked) [Compound 287]
2. C[C@H]1C[C@@]2(C[C@@H](c3cn(Cc4ncc(F)cc4F)nn3)N1)OC[C@@H](O)c1cc(Cl)sc12 [Compound 298]
3. C[C@H]1C[C@@]2(C[C@@H](c3ncccc3O)N1)OCCc1cc(Cl)sc12 (racemic) [Compound 172]
4. C[C@H]1C[C@@]2(C[C@@H](c3ncnn3C)N1)OCCc1cc(Cl)sc12 (racemic) [Compound 171]
5. C[C@H]1C[C@@]2(C[C@@H](c3cn(CCCS(C)(=O)=O)nn3)N1)OC[C@@H](O)c1cc(Cl)sc12 [Compound 228]

stdout:
96.0
95.0
52.0
71.8
100.0
